# Test system: MILI (PIWIL2) piRISC loaded with L1MC piRNA (26 nt);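 note: 1 nM active piRISC with 0.1 nM target library at 33 °C single turnover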
# procedure-text: pre-steady-state target cleavage rate (min^-1); guide: L1MC piRNA 5'p-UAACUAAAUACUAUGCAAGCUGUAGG; higher = faster piRNA-guided slicing of the target
# test-settings: auxiliary factor: none (no GTSF1)
Exercise: state measured pre-steady-state target cleavage rate for each of the sequences provided.
Numbers only.

Reference set (5 entries):
> print(dat)
                  record.sequence  measured.number
1  UCCUGCUACAGCUUGCAAUGUAUUUAGUUA          0.00809
2  UCCUGGUACUGCUUGCUUAGUAUUUAGUUA           0.0115
3  UCCUGGAUGUCGUUGCCUAGUAUUUAGUUA          0.00949
4  UCCUGCUACACGUUGCAUAGUAUUUAGUUA           0.0118
5  UCCUGGAUGUGCUUGCUAUGUAUUUAGUUA          0.00498

Hello, I would appreciate it if you could give pre-steady-state target cleavage rate for each entry below.
1. UCCUCCUACAGCUUCAUAGUAUUUAGUUA
2. UCCUGGAUGAGCUUGCAAACUAUUUAGUUA
3. UCCUCCUACAGGUUGCAUAGUAUUUAGUAA
4. UCCUGGUUCAGCUAGCAUAGUAUUUAGUUA
5. UCCUGGAACAGCUUGCAUAGUAUUUAGUAA
6. UCCUGGUACAGCUUGCAUUGUAUUUAGUUA

Result:
[0.0049, 0.00292, 0.00603, 0.0116, 0.00459, 0.0101]

###

# Test system: MILI (PIWIL2) piRISC loaded with L1MC piRNA (26 nt);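 note: 1 nM active piRISC with 0.1 nM target library at 33 °C single turnover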
# procedure-text: pre-steady-state target cleavage rate (min^-1); guide: L1MC piRNA 5'p-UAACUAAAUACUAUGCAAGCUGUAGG; higher = faster piRNA-guided slicing of the target
# test-settings: auxiliary factor: 500 nM mouse GTSF1
// -1 strictly below 0.09 in pre-steady-state target cleavage rate; 1 otherwise

> print(dat)
                  record.sequence  category.label
1  UCCUGGAACUGCUUGCAAAGUAUUUAGUUA               1
2  UCCUGGAACAGCUUGCAUAGAUUUUACAAA              -1
3  UCCUGGAUCAGCUUGCAUAGUGUUUAGUUA               1
4  UCCUGGUACAGCUUGCUUAGUAUUUAGAUA               1
5  UCCUGCUACAGCUUGCAUAGUAUAAUCAAA              -1

Problem: Hi team, for UCCUGGUACAGCUAGCAUAGUAUUUUGUUA , is the recorded pre-steady-state target cleavage rate at or above 0.09?
Result: -1

Problem: Hi team, for UCCUGGAUCAGCUUGCAUAGUAUUUAGGUA , is the recorded pre-steady-state target cleavage rate at or above 0.09?
Result: 1

Problem: Hi team, for UCCUCCUACAGCUUGCAUAGUUUUAGUUA , is the recorded pre-steady-state target cleavage rate at or above 0.09?
Result: -1

Problem: Hi team, for UCCUGGAUGUCGUUGCUUAGUAUUUUGUUA , is the recorded pre-steady-state target cleavage rate at or above 0.09?
Result: -1

Problem: Hi team, for UCCUCCUACAGCUUGCAUAGUAUUUUGUUA , is the recorded pre-steady-state target cleavage rate at or above 0.09?
Result: 1

Problem: Hi team, for UCCUGCUACAGCUUACAUAGUAUUUAGUUA , is the recorded pre-steady-state target cleavage rate at or above 0.09?
Result: 1

Problem: Hi team, for UCCUGGAUCAGCAUGCAUAGUAUUUUCAAA , is the recorded pre-steady-state target cleavage rate at or above 0.09?
Result: -1

Problem: Hi team, for UCCUCCUACAGCUUGCAUAGUAAAUAGUUA , is the recorded pre-steady-state target cleavage rate at or above 0.09?
Result: 1

Problem: Hi team, for UCCUGGAUGUGCUUGCAUAGUAGUUAGUUA , is the recorded pre-steady-state target cleavage rate at or above 0.09?
Result: -1

Problem: Hi team, for UCCUGGAUGUCCUUGCAUAGUAUAAUGUUA , is the recorded pre-steady-state target cleavage rate at or above 0.09?
Result: -1

Problem: Hi team, for UCCUGGAUCAGCUUGCAAAGAAUUUAGUUA , is the recorded pre-steady-state target cleavage rate at or above 0.09?
Result: -1

Problem: Hi team, for UCCUCCUACAGCUUGCAGUAGUAUUUAGUUA , is the recorded pre-steady-state target cleavage rate at or above 0.09?
Result: -1

###

# System: MILI (PIWIL2) piRISC loaded with piRNA #1 (26 nt);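 note: 1 nM active piRISC with 0.1 nM target library at 33 °C single turnover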
# procedure-text: pre-steady-state target cleavage rate (min^-1); guide: piRNA #1 5'p-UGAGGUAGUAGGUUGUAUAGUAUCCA; higher = faster piRNA-guided slicing of the target
# test-settings: auxiliary factor: 500 nM mouse GTSF1
// -1 strictly below 0.06 in pre-steady-state target cleavage rate; 1 otherwise

# count of solved cases: 3
> print(dat)
                   record.sequence  category.label
1  GGAGACCUAUGUAUACAACCUACUACCCUCA               1
2   GGAGACCAUACUAUACAUCCUACUACGUCA               1
3   GGAGACCAAACAAUACAACCUACUACCUCA               1

Problem: Hi team, for GGAGUGGAAACUAUACAACCUAGUACCUCA , is the recorded pre-steady-state target cleavage rate at or above 0.06?
Result: -1

Problem: Hi team, for GGAGUGGAUACUAUACAAGCUACUACGUCA , is the recorded pre-steady-state target cleavage rate at or above 0.06?
Result: 1

Problem: Hi team, for GGAGACCAUACUAUUCAUCCUACUACCUCA , is the recorded pre-steady-state target cleavage rate at or above 0.06?
Result: 1

Problem: Hi team, for GGAGACCUAUGAAUACCAACCUACUACCUCA , is the recorded pre-steady-state target cleavage rate at or above 0.06?
Result: -1

Problem: Hi team, for GGAGACCUUACUAUACAUCCUUCUACCUCA , is the recorded pre-steady-state target cleavage rate at or above 0.06?
Result: -1

Problem: Hi team, for GGAGAGGAUACUAUACAUCCUACUACCACA , is the recorded pre-steady-state target cleavage rate at or above 0.06?
Result: 1

Problem: Hi team, for GGAGAGGAAACUAUACAACCUAGUACCUCA , is the recorded pre-steady-state target cleavage rate at or above 0.06?
Result: -1

Problem: Hi team, for GGAGAGGAAACAAUACAACCUACUACCUCA , is the recorded pre-steady-state target cleavage rate at or above 0.06?
Result: 1

Problem: Hi team, for GGAGACCUUAGUAUACAACCUACUACCUGA , is the recorded pre-steady-state target cleavage rate at or above 0.06?
Result: -1

Problem: Hi team, for GGAGACCAUACUUUACAACCUACAACCUCA , is the recorded pre-steady-state target cleavage rate at or above 0.06?
Result: 1

###

# Test system: EfPiwi piRISC loaded with L1MC piRNA (26 nt)
# procedure-text: pre-steady-state target cleavage rate (min^-1); auxiliary factor: 500 nM Ephydatia muelleri Gtsf1; guide: L1MC piRNA 5'p-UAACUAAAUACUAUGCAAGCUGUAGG; MIWI and MILI are mouse PIWI proteins and EfPiwi is from a freshwater sponge; tags in brackets are library labels; higher = faster piRNA-guided slicing of the target
Exercise: state measured pre-steady-state target cleavage rate for each of the sequences provided.
Numbers only.

Reference set (3 entries):
> print(dat)
                   record.sequence                              assay.system  measured.number
1  UCCUCCUACAGACUUGCAUAGUAUUUAGUUA  EfPiwi piRISC loaded with L1MC piRNA (26 nt)            0.017
2  UCCUGGUACAGCUUGCAAUAGUAUUUAGUUA  EfPiwi piRISC loaded with L1MC piRNA (26 nt)          0.00587
3   UCCUGGAUCAGCGUGCAUAGUAUUUAGUUA  EfPiwi piRISC loaded with L1MC piRNA (26 nt)           0.0619

Hello, I would appreciate it if you could give pre-steady-state target cleavage rate for each entry below.
1. UCCUGCCACAGCUUGCAUAGUAUUUAGUUA
2. UCCUGGAUGUCGAUGCAUAGUAUUUAGUAA
3. UCCUGGUAGAGCUUGCAUAGUUUUUAGUUA
4. UCCUGGAUCUGCUUGCAUAGUAUUUUGUUA
5. UCCUGGUACAGCUUGCAUAGUAUUUAGAUA
6. UCCUGCUAGAGCUUGCAUACUAUUUAGUUA

Result:
1. 0.0631
2. 0.00329
3. 0.0049
4. 0.0153
5. 0.00705
6. 0.00515

Hello, I would appreciate it if you could give pre-steady-state target cleavage rate for each entry below.
1. UCCUGGUACAGCUUGCAUAUUAUUUAGUUA
2. UCCUCCUACACCUUGCAUAGUUUUUAGUUA
3. UCCUCCUACAGCGUGCAUAGUAUUUAGUUA
4. UCCUCCUACUGCUUGCAUAGUAAUUAGUUA

Result:
1. 0.00464
2. 0.00443
3. 0.1
4. 0.0119
